test system: SK-MEL-2 melanoma; test: NCI tumour cell line growth inhibition, 48 h
readout.name: TGI

Worked examples follow.
CC#CCCN(CC#N)Cc1ccccc1: > 100 µM
COc1ccc(-c2csc(-c3cc(Cl)cc(Cl)c3Cl)n2)cc1: > 100 µM
O=C1CC(=O)N(CCc2ccccc2)S(=O)(=O)N1CCc1ccccc1: 48.3 µM
CCC1CCc2nc3sc(C(=O)Nc4ccccc4C)c(N)c3cc2C1 (stereo not given): > 100 µM
COC1=Nc2ccccc2S(=O)(=O)C=C1: 35.8 µM

Record `CCCCn1sc(=O)n(Cc2ccc(CNC(=O)OCc3ccc4c(Br)cc(Br)c(O)c4n3)cc2)c1=O` . Reported TGI: > 100 µM

Record `O=C(O)CCCOc1cc(-c2ccccc2F)nc2cc3c(cc12)OCO3` . Reported TGI: > 100 µM

Record `CCOC(=O)/C=C1\c2ccccc2C(=O)N1CC(=O)OCC` . Reported TGI: > 100 µM
